experiment: inhibitors of HIV-1 Env-driven cell-cell fusion, primary screen, HeLa-JRFL effector, CEM21 target cells, luciferase (AID 651610); conditions: at 16.7 µM unless noted
Screen size: about 360,000 compounds; about 3,900 (1.1%) were called active.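 How the source made its calls: active means mean replicate inhibition score of at least 50 and every replicate individually at or above 50; inconclusive means only one of the two criteria met; inactive means mean below 50 and not all replicates reaching 50.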 This is one part of a sample in which actives are shown more often than they occur.
Outcome field: choose from active, inactive

Recorded results for 7 compounds are shown here.
- compound_structure: "O=C(CN1C(=O)c2ccccc2S1(=O)=O)N1CCc2ccccc21"
  group_label: "active"
- compound_structure: "Cc1ccc(S(=O)(=O)N(C)CC(=O)N2CCc3ccccc32)cc1"
  group_label: "inactive"
- compound_structure: "CN(Cc1ccc(F)cc1)C(=O)CN1C(=O)c2ccccc2S1(=O)=O"
  group_label: "inactive"
- compound_structure: "C[C@H](CO)N1C[C@H](C)[C@H](CN(C)Cc2ccc(C(=O)O)cc2)Oc2ccc(NS(=O)(=O)c3cn(C)cn3)cc2CC1=O"
  group_label: "inactive"
- compound_structure: "O=C(CN1CCOCC1)N[C@H]1CC[C@@H](CCNS(=O)(=O)c2ccccc2F)O[C@H]1CO"
  group_label: "inactive"
- compound_structure: "C[C@@H]1CCCCO[C@H](CN(C)S(=O)(=O)c2cccs2)[C@H](C)CN([C@H](C)CO)C(=O)c2cc(NC(=O)c3ccccc3)ccc2O1"
  group_label: "inactive"
- compound_structure: "CCS(=O)(=O)Nc1ccc2c(c1)C(=O)N(C)[C@H]1CC[C@H](CC(=O)NCc3ccccc3F)O[C@H]1CO2"
  group_label: "inactive"

Now for a further compound.
**Q:** Can you look up the reported call for CCCNC(=O)N(C)C[C@H]1Oc2cc(-c3ccncc3)ccc2S(=O)(=O)N([C@H](C)CO)C[C@H]1C for me?
**A:** inactive
